# assay-system: T1, human VIP (human)
# T1 construct: also called Vasoactive Intestinal Peptide
# T1 peptide: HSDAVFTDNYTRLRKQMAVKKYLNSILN
# experimental-details: SPR, Ab immobilised
Known Kd of a selection of binders
value-type: Kd (µM)

binder	value-type	quantitative-result
anti-PACAP antibody Ab22 (antibody, human IgG1, kappa, N297A, V domains shown, full-length rabbit/human chimeric antibody; PACAP38 specific) VH: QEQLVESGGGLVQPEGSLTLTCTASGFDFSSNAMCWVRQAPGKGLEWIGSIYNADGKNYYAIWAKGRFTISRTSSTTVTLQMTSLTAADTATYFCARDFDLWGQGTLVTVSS VL: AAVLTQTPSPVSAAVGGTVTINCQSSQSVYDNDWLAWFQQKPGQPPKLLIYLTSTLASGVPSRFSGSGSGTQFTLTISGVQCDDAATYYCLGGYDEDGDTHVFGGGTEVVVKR	Kd	0.69
anti-PACAP antibody Ab1 (antibody, human IgG1, kappa, N297A, V domains shown, full-length rabbit/human chimeric antibody) VH: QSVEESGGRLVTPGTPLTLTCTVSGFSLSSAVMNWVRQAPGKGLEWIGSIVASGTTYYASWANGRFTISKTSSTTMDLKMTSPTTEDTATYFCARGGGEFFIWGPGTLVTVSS VL: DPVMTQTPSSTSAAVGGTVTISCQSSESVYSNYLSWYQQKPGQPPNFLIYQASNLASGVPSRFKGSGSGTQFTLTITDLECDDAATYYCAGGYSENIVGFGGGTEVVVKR	Kd	0.099
anti-PACAP antibody Ab4 (antibody, human IgG1, kappa, N297A, V domains shown, full-length rabbit/human chimeric antibody) VH: QSVEESGGRLVTPGTPLTLTCTVSGFSLSSYDMSWVRQAPGKGLEYIGIINTNDDTWYASWVKGRFTISKTSSTTVDLKMTSLTTEDTATYFCARISDAYVFDYAYYFTLWGQGTLVTVSS VL: ALVMTQTPSSVSAAVGGTVTINCLASQNIYNSLAWYQQKPGQPPKLLIYRASTLASGVSSRFKGSGSGTQFTLTISGVECADAATYYCQQGAGADNIGNPFGGGTEVVVKR	Kd	0.12

Every entry's value here was drawn from patent US20190233498A1.
